Here the recorded growth is given for each entry.
Tested on: HCC-2998 colon
Protocol Text: NCI-60 one-dose screen, 48 h (100 = growth as untreated, 0 = no growth, -100 = all killed)
Test Conditions: 10 µM unless noted
About 83,000 compounds went through this panel and 20% of them were active in at least one assay; those are over-represented in the sample as a whole. Active and inactive are the calls of the source. Rule for the calls: active = growth percent below 10; inactive = the rest.

Example results:
COC(=O)[C@]12CC[C@@H](C)[C@H](C)[C@@H]1C1=CC[C@@H]3[C@@]4(C)C(C=O)=C[C@@](C)(COS(C)(=O)=O)[C@@H]4C(=O)C[C@@]3(C)[C@]1(C)CC2
43.4% (inactive)
COc1ccc2occ(C3=C(c4c[nH]c5ccccc45)C(=O)N(O)C3=O)c2c1
112% (inactive)
Fc1ccc(CNc2c3ccccc3nc3ccccc23)cc1F
2.15% (active)
CCCCNC(=O)Oc1ccc2c(=O)c3sc4c(=O)c5ccccc5c(=O)c4c3c(=O)c2c1
-87.1% (active)

The compound listed as Cc1cc(NCc2cc(Nc3ccnc4cc(Cl)ccc34)ccc2F)nc(N2CCN(C)CC2)n1 has a reported growth of -35.2% (active)

# compound Cc1ccc(-c2cc(-c3ccccc3C)[nH]c(=O)c2C#N)s1 ; its growth = 111% (inactive)

Lab note: C=CCSc1nc2ccccc2cc1/C=N/O gave growth of 93.9% (inactive)

// sample C[n+]1cc2cc(C(N)=O)[nH]c3c(=N)c(Cl)c(N)c1c23 , its growth was 65.5% (inactive)

What the record says about CCN(CC)CCCCCCNc1cc(OC)c(Cl)c2cccnc12 : growth is 82.1% (inactive)

Short answer for CCOC(=O)c1c(-c2ccc(Cl)cc2)c(C#N)c(=O)n(-c2ccccc2CC)c1N : growth was 66.4% (inactive)

Hello, the source for this data is PubChem BioAssay (NCI), in case you need it.
